// provenance: PubChem BioAssay AID2060910

System: 242566-281-R-J2-PDC complex spheroid viability;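 also: spheroids exposed to compound for 7 days before readout; 100% = DMSO vehicle control wells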
Assay: Anticancer human tumor 242566-281-R-J2-PDC patient-derived pancreatic carcinoma cell line growth inhibition [RAS]
Details: second compound 1 µM; first compound 0.0316 µM; active compounds read low
Please note: viability, T/C exactly at 60% is no (0). Only values below 60% get yes (1).

For CCC(CC)c1cc(NC2CCC(N)C2)n2nccc2n1 (stereo not given) + C=CC(=O)N1CCN(c2nc(OCC3CCCN3C)nc3c(F)c(-c4nc(N)cc(C)c4C(F)(F)F)c(Cl)cc23)C(C)C1 , is the recorded viability, T/C below the cut-off of 60%?
no (0)

Hi there! Is viability, T/C for CC(Nc1ccc2c(c1)OCCn1cc(N3C(=O)OCC3C(F)F)nc1-2)C(N)=O (stereo not given) + C#Cc1c(F)ccc2cc(O)cc(-c3ncc4c(N5CC6CCC(C5)N6)nc(OCC56CCCN5CC(F)C6)nc4c3F)c12 below 60%, do you know?
yes (1)

For this molecule, is viability, T/C lower than 60%? O=C(c1ccc(F)c(F)c1Nc1ccc(I)cc1F)N1CC(O)([C@@H]2CCCCN2)C1 + C=CC(=O)N1CCN(c2nc(OCC3CCCN3C)nc3c(F)c(-c4nc(N)cc(C)c4C(F)(F)F)c(Cl)cc23)C(C)C1
no (0)

Record C=CC(=O)Nc1cc(Nc2nccc(-c3cn(C)c4ccccc34)n2)c(OC)cc1N(C)CCN(C)C + C#Cc1c(F)ccc2cc(O)cc(-c3ncc4c(N5CC6CCC(C5)N6)nc(OCC56CCCN5CC(F)C6)nc4c3F)c12 : is its viability, T/C strictly below 60%?
yes (1)

Report whether reported viability, T/C is lower than 60% (strictly) for CC(C)n1nc(-c2ccc3oc(N)nc3c2)c2c(N)ncnc21 + C#Cc1c(F)ccc2cc(O)cc(-c3ncc4c(N5CC6CCC(C5)N6)nc(OCC56CCCN5CC(F)C6)nc4c3F)c12
yes (1)

Does CCN1CCN(Cc2ccc(Nc3ncc(F)c(-c4cc(F)c5nc(C)n(C(C)C)c5c4)n3)nc2)CC1 + C=CC(=O)N1CCN(c2nc(OCC3CCCN3C)nc3c(F)c(-c4nc(N)cc(C)c4C(F)(F)F)c(Cl)cc23)C(C)C1 have viability, T/C strictly under 60%?
no (0)

Hello, is viability, T/C of the following molecule strictly smaller than 60%? Cc1nc(N2CCC3(CC2)COC(C)C3N)c(CO)nc1Sc1ccnc(N)c1Cl (stereo not given) + C#Cc1c(F)ccc2cc(O)cc(-c3ncc4c(N5CC6CCC(C5)N6)nc(OCC56CCCN5CC(F)C6)nc4c3F)c12
yes (1)

A record lists C[C@@H](NC(=O)c1ncnc(N)c1Cl)c1ncc(C(=O)Nc2cc(C(F)(F)F)c(Cl)cn2)s1 + C#Cc1c(F)ccc2cc(O)cc(-c3ncc4c(N5CC6CCC(C5)N6)nc(OCC56CCCN5CC(F)C6)nc4c3F)c12 . Is its viability, T/C below 60%?
no (0)

Does this molecule meet the criterion viability, T/C < 60%? O=C(c1ccc(F)c(F)c1Nc1ccc(I)cc1F)N1CC(O)([C@@H]2CCCCN2)C1 + C#Cc1c(F)ccc2cc(O)cc(-c3ncc4c(N5CC6CCC(C5)N6)nc(OCC56CCCN5CC(F)C6)nc4c3F)c12
yes (1)

Quick check: does Nc1ccn(C2OC(CO)C(O)C2(F)F)c(=O)n1 (stereo not given) + C=CC(=O)N1CCN(c2nc(OCC3CCCN3C)nc3c(F)c(-c4nc(N)cc(C)c4C(F)(F)F)c(Cl)cc23)C(C)C1 have viability, T/C under 60%?
no (0)
